The reader will find reported z-score values listed item by item below.
- assay protocol: A549 lung cancer cell viability effects, profiling panel, resazurin fluorescence, 24 h, PK04 Diversity Set (AID 1171); further: test concentration not given here
- applied conditions: higher = more signal, called active from +8 up or from −8 down
Write no unit; give the number alone.

Solved entries:
CCOC(=O)[C@H](CC(C)C)NC(=O)CCC1CC(OC(=O)NCc2cccc3ccccc23)CC2(CCCC(COC(=O)NCc3cccc(C(F)(F)F)c3)O2)O1 (stereo partly drawn): -0.75
COCOc1ccc(Br)cc1C(=O)[C@@H]1O[C@H]1c1cccc(OC)c1: -0.486
COc1cccc([C@H]2Oc3ccc(OC)cc3C(=NOC[C@@H](O)[C@H]3O[C@@H]4OC(C)(C)O[C@@H]4[C@H]3O)[C@@H]2O)c1: -0.794
Cc1cc2c(c(=O)o1)[C@@H](O)[C@H]1O[C@H]1C2=O: -0.588
C[C@@H](ON=C1[C@H]2CCn3c(=O)n(-c4ccccc4)c(=O)n3[C@H]2[C@H](O)[C@@H]2O[C@H]12)c1cn([C@@H]2COC[C@H]2O)nn1: 0.0264

Param item = CCOC(=O)[C@H](CC(C)C)NC(=O)CCC1CC(OC(=O)NCc2cccc3ccccc23)CC2(CCCC(COC(=O)NCCOc3ccccc3)O2)O1 (stereo partly drawn) ; retrieve measured z-score. 1.33

Item: CCOC(=O)[C@H](CC(C)C)NC(=O)CCC1CC(OC(=O)NCCc2ccc(F)cc2)CC2(CCCC(COC(=O)NCC3CCCCC3)O2)O1 (stereo partly drawn) 0.21

Item: CCCCc1nc2c(c3c1C[C@H](C)OC3)CN(CCOc1ccccc1)CC2 -0.682
